Quick reference for amyloid nucleation score among some substances
PROCEDURE_TEXT: amyloid nucleation score (Sup35N fusion, yeast selection) (log enrichment); library NNK1; higher = more nucleation; inactive = no reads after selection;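 further: zero at mode of non-aggregating sequences after 7 days selection at 30°C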
// keep it numeric: no unit symbol after the value

// known answers, use as guide
>>> test_result("RKALYA")
-0.117
>>> test_result("LTDLLMFIVPWDNAQRLVCF")
0.518
>>> test_result("NMFMIV")
-1.05
>>> test_result("FIRWKLVYYDIMKCPSCSHH")
-0.187

In: // query amyloid nucleation score value for entry `DYSMFHTVLKVRVCNYFFVW`
Out: 2.37

In: // query amyloid nucleation score value for entry `RLGPYSATWFVGKGKREGGV`
Out: 0.571

In: // query amyloid nucleation score value for entry `RKRSSRVIDVTGRWAVLTYP`
Out: 0.074

In: // query amyloid nucleation score value for entry `HFIFEYTSFSS`
Out: 0.307

In: // query amyloid nucleation score value for entry `FCKWCRFDDCTRGYIYFVRR`
Out: 1.76

In: // query amyloid nucleation score value for entry `IVTALEGYRDYFSEPCIFFM`
Out: -0.176

In: // query amyloid nucleation score value for entry `VGCVWAQEDRVPT`
Out: -0.715

###

PROCEDURE_TEXT: amyloid nucleation score (Sup35N fusion, yeast selection) (log enrichment); library NNK1; higher = more nucleation; inactive = no reads after selection
The threshold is inclusive: amyloid nucleation score of exactly 2 counts as met; values below receive not met.

Below, 8 sequences whose answers are already recorded.
>>> group("FICVMTRSGQDSSGMLLREG")
"not met"
>>> group("FEQTIISLVSGYFQSSDYWS")
"not met"
>>> group("FIEQGHYNHTGFGSYGWRF")
"not met"
>>> group("LAIVGQACRGVVEHARVSGH")
"not met"
>>> group("IWNIVWNNLVYVNFSNLGGV")
"met"
>>> group("RLRDTNVYTTQFFVFYLMNW")
"met"
>>> group("IQALDLDTVFDCC")
"met"
>>> group("SVAIASLFFLSFNFVDIRLL")
"not met"

In: Does the sequence `FGCNELNR` have recorded amyloid nucleation score that is 2 or more?
Out: not met

In: Does the sequence `ICDYPIVMRKYPVS` have recorded amyloid nucleation score that is 2 or more?
Out: not met

###

PROCEDURE_TEXT: amyloid nucleation score (Sup35N fusion, yeast selection) (log enrichment); library NNK1; higher = more nucleation; inactive = no reads after selection
MEASUREMENT_KIND: amyloid nucleation score

>>> test_result("CDNQVSGLNGS")
"inactive"
>>> test_result("TSCVLFLYTPLTGSFLAGCP")
-0.46
>>> test_result("RSQKLGHIGRDTLQWGLYCS")
-0.024
>>> test_result("SMAFGCWSVGWYRGMMSVCQ")
1.16
>>> test_result("GLMLDLFVSSVYSIT")
0.655
>>> test_result("FTESCRRGI")
0.053
>>> test_result("MIFSHETSRVIGDPWGPWN")
0.056
>>> test_result("LFHLPSVYIWFYAT")
6.72

In: // query amyloid nucleation score value for entry `FKESLGFMFMHDMSWDGLLV`
Out: 0.224

In: // query amyloid nucleation score value for entry `TGRRIVGYDCLNRSCMYICV`
Out: -0.321

In: // query amyloid nucleation score value for entry `FISSNDIYGGATGWDSSDVT`
Out: -0.743

In: // query amyloid nucleation score value for entry `CFVGMMKRFR`
Out: 1.36

In: // query amyloid nucleation score value for entry `EQENMCSVRQACIYH`
Out: 1.57

In: // query amyloid nucleation score value for entry `SHDFVVIISNCR`
Out: 5.57

In: // query amyloid nucleation score value for entry `FPTFLPQWTGKCFALRCGRW`
Out: inactive

###

PROCEDURE_TEXT: amyloid nucleation score (Sup35N fusion, yeast selection) (log enrichment); library NNK2; higher = more nucleation; inactive = no reads after selection
MEASUREMENT_KIND: amyloid nucleation score

// known answers, use as guide
>>> test_result("RAGFSSAPLVEGRSLTQRCR")
"inactive"
>>> test_result("TETTVFILLFWLLVILGRVH")
"inactive"
>>> test_result("GYYMRLS")
"inactive"
>>> test_result("ASAAAHVRIYQMIFVFERQL")
0.001
>>> test_result("FMECVSNNRMELVAGNEKGC")
0.082

In: // query amyloid nucleation score value for entry `RSSWPTLKQGCSKSRQIWRA`
Out: 0.182

In: // query amyloid nucleation score value for entry `RIGSGTGRPWN`
Out: -1.02

In: // query amyloid nucleation score value for entry `GRSGFYCIHKMSVDTFIQKA`
Out: 4.27

In: // query amyloid nucleation score value for entry `FRYFDWCIFYSYLLVCY`
Out: -1.96

In: // query amyloid nucleation score value for entry `MDCRLV`
Out: 0.216

In: // query amyloid nucleation score value for entry `YFKYNVYIT`
Out: 1.3

In: // query amyloid nucleation score value for entry `DWVFMRKCSPCWWYYIHLMS`
Out: -0.468

In: // query amyloid nucleation score value for entry `RLVWWVIWIPSKCMGADKNW`
Out: -0.029

###

PROCEDURE_TEXT: amyloid nucleation score (Sup35N fusion, yeast selection) (log enrichment); library NNK3; higher = more nucleation; inactive = no reads after selection
MEASUREMENT_KIND: amyloid nucleation score

// known answers, use as guide
>>> test_result("ANAVLKIFTSVMGSVNS")
"inactive"
>>> test_result("SRWATGWTTIISYMEPWFRA")
"inactive"
>>> test_result("TWWSEGIYELKYGLFWLGVV")
"inactive"
>>> test_result("FWSHLTLTSSSFKFGTVSR")
"inactive"
>>> test_result("TKAYGCIHTDRRDSQLKFSA")
"inactive"
>>> test_result("AYSFNSFRASGRHLWFTVCP")
"inactive"

In: // query amyloid nucleation score value for entry `VVVCNRIVNSSEFRCSYTRK`
Out: 1.73

In: // query amyloid nucleation score value for entry `NSSAKGFVQV`
Out: inactive

In: // query amyloid nucleation score value for entry `DPFRLLGEY`
Out: inactive

###

PROCEDURE_TEXT: amyloid nucleation score (Sup35N fusion, yeast selection) (log enrichment); library NNK1; higher = more nucleation; inactive = no reads after selection
MEASUREMENT_KIND: amyloid nucleation score
// keep it numeric: no unit symbol after the value

In: // query amyloid nucleation score value for entry `SLNSMVSLTWVRRDYTIWKR`
Out: 0.001

In: // query amyloid nucleation score value for entry `PCTGLRHGLHEFMSRYPDRD`
Out: 0.215

###

PROCEDURE_TEXT: amyloid nucleation score (Sup35N fusion, yeast selection) (log enrichment); library NNK3; higher = more nucleation; inactive = no reads after selection
MEASUREMENT_KIND: amyloid nucleation score
// keep it numeric: no unit symbol after the value

>>> test_result("CNMGYSIFVFILNLSPV")
1.99

Please turn your attention to the following entry.
In: // query amyloid nucleation score value for entry `CCFVRWGFGC`
Out: 1.38

###

PROCEDURE_TEXT: amyloid nucleation score (Sup35N fusion, yeast selection) (log enrichment); library NNK3; higher = more nucleation; inactive = no reads after selection
MEASUREMENT_KIND: amyloid nucleation score

// known answers, use as guide
>>> test_result("DIFSRSVS")
"inactive"
>>> test_result("FYNFSTCVTRGWYVFMRC")
"inactive"
>>> test_result("PDNGLRAIMTAGPVFSRQSN")
"inactive"
>>> test_result("TLVGTFYSMQRSDRIWR")
0.475
>>> test_result("LFYIWQSFQFRN")
"inactive"
>>> test_result("WVKPSSFWGFERNTYDIYIG")
-0.176
>>> test_result("SGSVNIHSWCGFNSWT")
"inactive"
>>> test_result("HFVLWHLKGSQFGGSVAVIQ")
"inactive"
>>> test_result("FLLFFILPSVRDLASHKSRG")
0.099
>>> test_result("GKVVVN")
"inactive"

Please turn your attention to the following entry.
In: // query amyloid nucleation score value for entry `KQTFKYTGVDHTVT`
Out: inactive

###

Quick reference for amyloid nucleation score among some substances
PROCEDURE_TEXT: amyloid nucleation score (Sup35N fusion, yeast selection) (log enrichment); library NNK1; higher = more nucleation; inactive = no reads after selection
// keep it numeric: no unit symbol after the value

// known answers, use as guide
>>> test_result("FYCMLSSSSNFPSGNDRAYD")
-0.341
>>> test_result("WLMVLATGAYAMHWVVTSSL")
2.98
>>> test_result("LSMGRYRPKRFLLRNTSDTL")
-0.438

In: // query amyloid nucleation score value for entry `LIGFAGRVYGAFLQVSMTWN`
Out: 3.2

In: // query amyloid nucleation score value for entry `RNFCSSEGPSRHERLCNTKR`
Out: -0.542
